# Tested on: Liver microsome
# TEST SUMMARY: Metabolic stability in human liver microsomes assessed as compound remaining
READOUT LABEL: Stability (%)

// known answers, use as guide
The reported value for CC(C)(C(=O)NC(N)=O)[C@H]1c2ccccc2Oc2nc(-c3ccc(C(=O)N4CCOCC4)cc3)ccc21 in terms of Stability is 95

Input CC(C)(C(=O)NC(N)=O)[C@@H]1c2ccc(-c3ccc(C(=O)N4CCCC4)cc3)nc2Oc2c(F)cccc21 . Output Stability: 89

(A) CC(C)Oc1ccc(-c2ccc3c(n2)Oc2c(F)cccc2[C@@H]3C(C)(C)C(=O)NC(N)=O)cn1
(B) CC(C)(C(=O)NC(N)=O)[C@@H]1c2ccc(-c3ccc(C(=O)N4CC[C@H](F)C4)cc3)nc2Oc2c(F)cccc21
[in] Hi there! Just curious which has the higher Stability between A and B . Write the label of whichever entry you select.
[out] A

====

# TARGET DESC: Glucocorticoid receptor (Homo sapiens)
# Sequence (P04150 whole entry): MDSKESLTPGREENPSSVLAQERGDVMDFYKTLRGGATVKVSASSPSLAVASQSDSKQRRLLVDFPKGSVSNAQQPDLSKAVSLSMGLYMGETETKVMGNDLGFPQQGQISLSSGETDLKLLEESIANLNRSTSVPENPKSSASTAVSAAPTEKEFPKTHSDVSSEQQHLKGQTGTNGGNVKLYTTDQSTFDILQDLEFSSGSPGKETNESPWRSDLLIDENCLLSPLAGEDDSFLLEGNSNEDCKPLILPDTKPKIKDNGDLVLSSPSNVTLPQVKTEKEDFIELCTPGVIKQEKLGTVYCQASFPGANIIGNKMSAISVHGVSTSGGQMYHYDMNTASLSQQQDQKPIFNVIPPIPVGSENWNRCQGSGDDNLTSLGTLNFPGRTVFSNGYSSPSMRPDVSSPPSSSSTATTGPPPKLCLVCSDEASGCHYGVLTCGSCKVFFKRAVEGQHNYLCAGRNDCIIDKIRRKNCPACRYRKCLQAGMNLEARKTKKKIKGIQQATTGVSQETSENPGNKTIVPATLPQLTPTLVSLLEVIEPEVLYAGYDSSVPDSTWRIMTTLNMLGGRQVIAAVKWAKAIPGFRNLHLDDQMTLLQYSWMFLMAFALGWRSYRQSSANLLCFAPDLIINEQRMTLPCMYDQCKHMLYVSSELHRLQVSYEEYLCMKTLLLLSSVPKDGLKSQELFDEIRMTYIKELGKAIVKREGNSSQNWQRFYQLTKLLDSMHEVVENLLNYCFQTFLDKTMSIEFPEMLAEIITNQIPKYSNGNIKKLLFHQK
# TEST SUMMARY: Agonist activity at glucocorticoid receptor in human A549 cells assessed as E-selectin transrepression by luciferase reporter gene assay
# Format: cell-based
READOUT LABEL: EC50 (nM)

Some entries whose results are on file:
GET /value?item= CC(C)(C(=O)NC(N)=O)[C@H]1c2ccccc2Oc2nc(-c3ccc(C(=O)N4CCCC4)cc3)ccc21 &field=EC50 returns 5

Summary for this compound, CC(C)(C(=O)NC(N)=O)[C@@H]1c2ccc(-c3ccc(C(=O)N4CCCC4)cc3)nc2Oc2c(F)cccc21 : EC50 is 1.4

Value of measured EC50 for the entry CC(C)(O)c1ccc(-c2ccc3c(n2)Oc2c(F)cccc2[C@@H]3C(C)(C)C(=O)NC(N)=O)cn1 : 14.7

Recorded result, CC(C)(C(=O)NC(=O)C1CC1)[C@@H]1c2ccc(-c3ccc(C(=O)N4CCOCC4)cc3)nc2Oc2c(F)cccc21 , EC50: 17.6

(I) CC(=O)NC(=O)C(C)(C)[C@@H]1c2ccc(-c3ccc(C(=O)N4CCCC4)cc3)nc2Oc2c(F)cccc21
(II) CC(C)(C(=O)NC(N)=O)[C@@H]1c2ccc(-c3ccc(C(=O)N4CCOCC4)cc3)nc2Oc2c(F)cccc21
(III) CNC(=O)NC(=O)C(C)(C)[C@@H]1c2ccc(-c3ccc(C(=O)N4CCOCC4)cc3)nc2Oc2c(F)cccc21
(IV) CC(=O)NC(=O)C(C)(C)[C@@H]1c2ccc(-c3ccc(C(=O)N(C)C)cc3)nc2Oc2c(F)cccc21
[in] With regard to EC50, arrange the entries in ascending order, please. Output the labels ranked as instructed.
[out] II, I, III, IV
(II: 1.2 nM, I: 3.6 nM, III: 16.1 nM, IV: 109 nM)

====

# TARGET DESC: Estrogen receptor (Homo sapiens)
# Sequence (P03372 whole entry): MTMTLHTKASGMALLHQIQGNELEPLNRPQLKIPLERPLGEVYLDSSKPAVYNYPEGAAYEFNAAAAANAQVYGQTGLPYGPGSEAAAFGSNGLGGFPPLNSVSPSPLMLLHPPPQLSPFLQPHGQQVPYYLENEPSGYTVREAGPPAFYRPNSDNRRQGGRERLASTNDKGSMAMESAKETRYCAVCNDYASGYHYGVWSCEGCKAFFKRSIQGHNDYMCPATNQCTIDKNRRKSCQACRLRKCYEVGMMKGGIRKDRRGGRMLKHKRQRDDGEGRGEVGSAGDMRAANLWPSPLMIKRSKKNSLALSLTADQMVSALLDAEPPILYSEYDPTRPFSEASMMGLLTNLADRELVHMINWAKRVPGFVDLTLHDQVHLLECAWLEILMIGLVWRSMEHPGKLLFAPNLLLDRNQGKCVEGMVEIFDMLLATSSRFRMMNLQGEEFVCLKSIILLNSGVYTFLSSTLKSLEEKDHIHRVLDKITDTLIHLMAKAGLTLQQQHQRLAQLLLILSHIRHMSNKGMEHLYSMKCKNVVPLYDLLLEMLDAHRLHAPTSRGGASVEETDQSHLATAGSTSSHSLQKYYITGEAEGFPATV
# TEST SUMMARY: Binding affinity to estrogen receptor-alpha (unknown origin)
READOUT LABEL: Ki

Entry CC(C)(C(=O)NC(N)=O)[C@@H]1c2ccc(-c3ccc(C(=O)N4CCOCC4)cc3)nc2Oc2c(F)cccc21 ; Ki = > 75 µM

====

# TARGET DESC: Glucocorticoid receptor (Homo sapiens)
# Design: species or system Blood
pEC50: −log10 of the molar value.
READOUT LABEL: pEC50

// worked examples, pEC50 included
response.value for CC(C)(C(=O)NC(=O)C1CCC1)[C@@H]1c2ccc(-c3ccc(C(=O)N4CCOCC4)cc3)nc2Oc2c(F)cccc21 (field: pEC50) = 5.62

pEC50 reading for CC(C)C(=O)NC(=O)C(C)(C)[C@@H]1c2ccc(-c3ccc(C(=O)N4CCOCC4)cc3)nc2Oc2c(F)cccc21 : 6.41

Lab note: CC(C)(C(=O)NC(N)=O)[C@@H]1c2ccc(-c3ccc(C(=O)N4CCCC4)nc3)nc2Oc2c(F)cccc21 gave pEC50 of 6.68

Reported pEC50 for CC(=O)NC(=O)C(C)(C)[C@@H]1c2ccc(-c3ccc(C(=O)N(C)C)cc3)nc2Oc2c(F)cccc21 was 5.72

// field: pEC50; key: CC(=O)NC(=O)C(C)(C)[C@@H]1c2ccc(-c3ccc(C(=O)N4CCOCC4)cc3)nc2Oc2c(F)cccc21 ; value = 7.06

Per the record, CC(C)(O)c1ccc(-c2ccc3c(n2)Oc2c(F)cccc2[C@@H]3C(C)(C)C(=O)NC(N)=O)cn1 has pEC50 of 6.70

According to the records, this compound CC(C)(C(=O)Nc1nncs1)[C@@H]1c2ccc(-c3ccc(C(=O)N4CCOCC4)cc3)nc2Oc2c(F)cccc21 displays pEC50 of 7.67

(A) CNC(=O)NC(=O)C(C)(C)[C@@H]1c2ccc(-c3ccc(C(=O)N4CCOCC4)cc3)nc2Oc2c(F)cccc21
(B) CC(C)(C(=O)NC(=O)NC1CCC1)[C@@H]1c2ccc(-c3ccc(C(=O)N4CCOCC4)cc3)nc2Oc2c(F)cccc21
[in] Looking at A and B , which one comes out lower in pEC50 terms? Let me know the label of the one you choose.
[out] B
(B: 5.62, A: 5.99)

Reference source: ChEMBL document CHEMBL3351663
